Here we list molecules with their recorded Ki when tested on UniProt:P35372.
Sequence (P35372 whole entry): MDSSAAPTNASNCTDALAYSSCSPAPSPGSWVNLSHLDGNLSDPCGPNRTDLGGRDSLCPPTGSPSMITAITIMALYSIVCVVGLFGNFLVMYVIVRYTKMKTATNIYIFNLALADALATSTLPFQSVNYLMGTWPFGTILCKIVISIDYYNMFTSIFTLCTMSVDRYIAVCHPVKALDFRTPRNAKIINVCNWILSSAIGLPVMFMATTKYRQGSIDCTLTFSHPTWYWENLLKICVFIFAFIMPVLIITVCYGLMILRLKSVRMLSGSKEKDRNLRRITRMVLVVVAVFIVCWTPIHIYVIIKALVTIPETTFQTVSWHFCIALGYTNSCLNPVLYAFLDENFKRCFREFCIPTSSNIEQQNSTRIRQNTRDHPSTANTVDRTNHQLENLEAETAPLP
# value in nM; strip the unit string

As a guide, the following entries are already answered.
[
  {
    "Molecule": "c1ccc2c(c1)CNC(CN1CCC3(CCc4ccccc43)CC1)C2 (stereo unspecified)",
    "Numeric Readout": 225
  },
  {
    "Molecule": "c1ccc2c(c1)CCC(CN1CCC3(CCc4ccccc43)CC1)C2 (stereo unspecified)",
    "Numeric Readout": 289
  },
  {
    "Molecule": "Oc1cccc2c1CNC(CN1CCC3(CCc4ccccc43)CC1)C2 (stereo unspecified)",
    "Numeric Readout": 288
  },
  {
    "Molecule": "CC(=O)N1Cc2ccccc2CC1CN1CCC2(CCc3ccccc32)CC1 (stereo unspecified)",
    "Numeric Readout": 74.4
  },
  {
    "Molecule": "NC(=O)N1Cc2ccccc2CC1CN1CCC2(CCc3ccccc32)CC1 (stereo unspecified)",
    "Numeric Readout": 108
  }
]

Here's the next entry for you.
Request: State its Ki on UniProt:P35372: Oc1ccc2c(c1)CC(CN1CCC3(CCc4ccccc43)CC1)NC2 (stereo unspecified)
Response: 392
